- assay_system: IRAK4 (Homo sapiens, UniProt Q9NWZ3)
- Sequence (Q9NWZ3 1-460): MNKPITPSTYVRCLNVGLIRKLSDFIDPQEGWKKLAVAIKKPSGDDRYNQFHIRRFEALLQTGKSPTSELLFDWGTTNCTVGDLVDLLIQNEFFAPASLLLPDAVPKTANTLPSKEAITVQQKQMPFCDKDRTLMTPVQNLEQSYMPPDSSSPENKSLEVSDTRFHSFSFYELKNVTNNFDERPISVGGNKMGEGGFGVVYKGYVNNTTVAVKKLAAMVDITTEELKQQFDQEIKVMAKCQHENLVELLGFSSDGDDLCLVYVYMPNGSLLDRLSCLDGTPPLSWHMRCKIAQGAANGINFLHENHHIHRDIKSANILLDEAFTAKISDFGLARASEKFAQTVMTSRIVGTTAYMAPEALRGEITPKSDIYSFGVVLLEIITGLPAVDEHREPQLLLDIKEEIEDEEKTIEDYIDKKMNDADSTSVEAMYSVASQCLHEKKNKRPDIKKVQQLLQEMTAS
- experimental_protocol: biochemical
assay_metric: IC50 (nM)
Give the value, in units of nM, as a plain number.

Consider the reported IC50 for these compounds:
compound	IC50 / nM
Cn1ccc(NC(=O)c2cn3cc(C45COC(C)(C4)C5)nc3cc2OC2CCC2)n1	1.7
CC(C)Oc1cc2nc(C34COC(C)(C3)C4)c(Cl)n2cc1C(=O)Nc1cccc(C(F)F)n1	39.3
Cc1cnc2c(NC(=O)c3cn4cc([C@]56CO[C@H](CCO5)C6)nc4cc3OC(C)C)cnn2c1 (single isomer, unassigned)	0.8
CCC(C)Oc1nc2nc(C34COC(CF)(C3)C4)cn2cc1C(=O)Nc1cnn2cc(C)cnc12 (single isomer, unassigned) [Example 645]	0.5
CC12CCC(c3cn4cc(C(=O)Nc5ccn(CC#N)n5)c(OC5CCC5)cc4n3)(CO1)C2 (centres unmarked)	2.9
COc1cccc(NC(=O)c2cn3cc(C4CCOCC4)nc3cn2)n1	232
COc1cccc(NC(=O)c2cn3cc(C(C)(F)F)nc3cc2OC(C)C)n1	17.5
CCOc1nc(C(=O)Nc2ccn(CC)n2)cn2cc(C34COC(C)(C3)C4)nc12	6.9
COc1ncccc1NC(=O)c1cn2cc([C@@]34CC[C@@](C)(C3)OC4)nc2nc1OC(C)C (single isomer, unassigned)	0.2
CCOc1nc(C(=O)Nc2cnn3cc(C)cnc23)cn2cc(C34COC(C)(C3)C4)nc12	4.3

Query compound follows.
**Q:** Could you tell me which IC50 is on file for Cc1cnc2c(NC(=O)c3cn4cc(C56CCC(C)(C5)OC6)nc4cc3OC3CC3)cnn2c1 (centres unmarked) ?
**A:** 1.6

====

- assay_system: IRAK4 (Homo sapiens, UniProt Q9NWZ3)
- experimental_protocol: 2-hour 10 μM ATP Biochemical Assay (MesoScale Detection format; IRAK4 phosphorylation of biotin labeled IRAK1 activation loop peptide)
- measurement_setup: 0.1 nM IRAK4
assay_metric: pIC50
As a rule, pIC50 stands for the negative log10 of the concentration, concentration in M.

molecule	assay_metric	reported_result
COc1cc2nc(C3CCOCC3)cn2cc1C(=O)Nc1ccccc1F [Example 147]	pIC50	8.00
COc1cc2nc(C3CCOCC3)cn2cc1C(=O)NC1CCCC2C1C2(F)F (stereo not drawn) [Example 117]	pIC50	6.25

Pending molecule:
**Q:** Could you tell me which pIC50 is on file for COc1cccc(NC(=O)c2cn3cc(C45CC(C(F)F)(C4)C5)nc3cc2OC)n1 [Example 20] ?
**A:** 8.52

====

- assay_system: IRAK4 (Homo sapiens)
- experimental_protocol: biochemical
Reported IC50 values are given for each entry in this list.
Answer with the value and then the unit.

# annotated cases, reported IC50 shown
smiles_representation	IC50
Cn1ccc(NC(=O)c2cn3cc(C45COC(C)(C4)C5)nc3nc2OC2CCCC2)n1	6 nM
CC(C)Oc1nc2nc(C34COC(C)(C3)C4)cn2cc1C(=O)Nc1nc(C(F)F)cs1	7.9 nM

Proceeding to the next compound to report its IC50.
**Q:** Give the measured IC50 of COc1cc2nc(C3CCOCC3)cn2cc1C(=O)Nc1cccc(C)c1F .
**A:** 8.2 nM

====

// values below are reported IC50
- assay_system: IRAK4 (Homo sapiens, UniProt Q9NWZ3)
- experimental_protocol: biochemical
Numbers only; they are read as µM.

smiles_representation	reported_result
CC(C)Oc1cc2nc(Cl)cn2cc1C(=O)Nc1cccc(C(F)F)n1	0.0067
COc1cc2nc(C3CCOCC3)cn2cc1C(=O)Nc1cccc(F)c1Cl	0.016

As a next step, examine the compound that follows.
**Q:** Given CCOc1nc(C(=O)Nc2cccc3c2CCC3)cn2cc(C3CCOCC3)nc12 , state its recorded IC50.
**A:** 0.0116

====

Catalogue of IC50 readings, one per entry.
- assay_system: IRAK4 (Homo sapiens, UniProt Q9NWZ3)
- experimental_protocol: biochemical
Numeric answer only, unit nM assumed.

compound	assay_metric	reported_result
CC(C)Oc1nc(C(=O)Nc2cccn(C)c2=O)cn2cc(C34CCC(C)(CC3)OC4)nc12	IC50	0.7
Cc1cnc2c(NC(=O)c3cn4cc(C56COC(C5)C6)nc4nc3OC(C)C)cnn2c1	IC50	0.6
CC12CCC(c3cn4cc(C(=O)Nc5cccc(C(F)F)n5)cc(OC(F)F)c4n3)(CO1)C2 (stereo not shown)	IC50	15.3
COc1cccc(NC(=O)c2cn3cc(C45COC(C)(C4)C5)nc3cc2OC)n1	IC50	15
CC(C)Oc1nc2nc(C34COC(C)(C3)C4)cn2cc1C(=O)Nc1cnc2cccnn12	IC50	0.6

**Q:** Using the record for O=C(Nc1cccc(C(F)F)n1)c1cc(Cl)c2nc(C3CCOCC3)cn2c1 , report its IC50.
**A:** 71.5

**Q:** Same read-out for CCOc1nc(C(=O)Nc2cccc(F)c2OC)cn2cc(C34COC(C)(C3)C4)nc12 ?
**A:** 2.7

**Q:** // repeat for CC(C)Oc1cc2nc([C@]34CC[C@](C)(C3)OC4)cn2cc1C(=O)Nc1cccn(C(F)F)c1=O (single isomer, unassigned) and report
**A:** 0.3

**Q:** Consider next the compound CCOc1cc(C(=O)Nc2cccc(C(F)F)n2)cn2cc(C3CCCOC3)nc12 (stereo not shown) in the same way.
**A:** 7.5

**Q:** For CC(C)Oc1cc2nc(C34COC(C)(C3)C4)cn2cc1C(=O)Nc1cccc2ccnn12 then?
**A:** 0.6

**Q:** Now the compound COc1cc2nc(C34CC(C)(CO3)C4)cn2cc1C(=O)Nc1ccccn1
**A:** 235

**Q:** Queued: COc1cc2nc(C3CCOCC3)cn2cc1C(=O)Nc1cccn(C(C)C)c1=O
**A:** 42.9

**Q:** Same read-out for Cc1cnc2c(NC(=O)c3cn4cc([C@]56CO[C@H](CCO5)C6)nc4nc3OC(C)C)cnn2c1 (single isomer, unassigned) ?
**A:** 1.3

====

# IC50 values compiled below
- assay_system: UniProtKB Q9NWZ3
- Sequence (Q9NWZ3 1-460): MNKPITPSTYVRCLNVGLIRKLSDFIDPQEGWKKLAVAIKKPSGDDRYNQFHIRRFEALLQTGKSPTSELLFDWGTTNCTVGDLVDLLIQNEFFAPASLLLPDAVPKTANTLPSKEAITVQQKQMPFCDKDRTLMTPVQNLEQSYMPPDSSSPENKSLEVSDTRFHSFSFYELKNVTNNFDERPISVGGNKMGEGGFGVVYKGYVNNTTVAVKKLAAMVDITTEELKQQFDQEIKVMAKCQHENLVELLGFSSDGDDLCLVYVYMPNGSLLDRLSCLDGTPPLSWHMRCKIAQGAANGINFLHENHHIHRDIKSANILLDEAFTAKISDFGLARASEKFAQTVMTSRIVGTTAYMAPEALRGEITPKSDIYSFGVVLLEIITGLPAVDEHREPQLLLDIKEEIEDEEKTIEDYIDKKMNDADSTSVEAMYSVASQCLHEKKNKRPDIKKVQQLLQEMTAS
- experimental_protocol: biochemical
Your answer should be a number followed by the unit of measure.

compound	assay_system	assay_metric	reported_result
CC(C)Oc1nc2nc([C@@]34CC[C@@](C)(C3)OC4)cn2cc1C(=O)Nc1cccc(C(F)F)n1 (single isomer, unassigned)	UniProtKB Q9NWZ3	IC50	0.2 nM
COc1cc2nc(C3CCOCC3)cn2cc1C(=O)Nc1cccc2c1CCO2	UniProtKB Q9NWZ3	IC50	40 nM
CCOc1cc2nc([C@H]3C[C@H]3F)cn2cc1C(=O)Nc1cccc(OC)n1	UniProtKB Q9NWZ3	IC50	12.6 nM

**Q:** I have this compound here, CC(C)Oc1nc2nc(C34COC(C)(C3)C4)cn2cc1C(=O)Nc1nc(C(F)(F)F)cs1 , and I need its recorded IC50.
**A:** 13.4 nM

**Q:** Would you mind doing Cn1ccc(NC(=O)c2cn3cc([C@@]45CC[C@@](C)(C4)OC5)nc3nc2OC2CCCC2)n1 (single isomer, unassigned) as well?
**A:** 2.6 nM

**Q:** What about this compound? COc1cccc(NC(=O)c2cn3cc(C4CCOCC4)nc3cc2OC)n1
**A:** 8.5 nM

**Q:** Quick one: COCc1cc2nc(C34COC(C)(C3)C4)cn2cc1C(=O)Nc1cnn2cc(C)cnc12
**A:** 1230 nM

**Q:** Record: COc1cc2nc(C3C4COCC43)cn2cc1C(=O)Nc1cccc(C(F)(F)F)n1 (stereo not shown)
**A:** 13 nM

**Q:** Entry Cn1ccc(NC(=O)c2cn3cc(C45COC(C)(C4)C5)nc3cc2OC2CC3(CC3)C2)n1 please
**A:** 2 nM

**Q:** Similarly, CCOc1nc(C(=O)Nc2cc(F)ccc2OC)cn2cc(C34COC(C)(C3)C4)nc12 ?
**A:** 7.3 nM

**Q:** Same question, Cc1cnc2c(NC(=O)c3cn4cc([C@@]56CC[C@@](C)(C5)OC6)nc4nc3OC(C)C)cnn2c1 (single isomer, unassigned) this time
**A:** 0.2 nM

**Q:** Quick one: CC(C)Oc1cc2nc(C3CC3)cn2cc1C(=O)Nc1cccc(CC#N)n1
**A:** 3 nM

Entry source: patent US20230087118A1
